# assay-explanation: Antioxidant activity assessed as ABTS radical scavenging activity after 20 mins
# Assay type: functional
Recorded IC50, one value per entry.
measurement-name: IC50 (µM)

>>> numeric_readout("Cc1cccc(C(=O)N/N=C\\c2c(O)cc(O)cc2/C=C/c2ccc(O)cc2)c1")
18
>>> numeric_readout("Cc1c(C)c2c(c(C)c1O)CCC(C)(C(=O)O)O2 (configuration not stated)")
14.7
>>> numeric_readout("O=C(N/N=C\\c1c(O)cc(O)cc1/C=C/c1ccc(O)cc1)c1ccc(O)cc1")
13
>>> numeric_readout("Cc1ccc(C(=O)N/N=C\\c2c(O)cc(O)cc2/C=C/c2ccc(O)cc2)cc1")
15.7
>>> numeric_readout("O=C(N/N=C\\c1c(O)cc(O)cc1/C=C/c1ccc(O)cc1)c1cccc(O)c1")
11.7
>>> numeric_readout("O=C(N/N=C\\c1c(O)cc(O)cc1/C=C/c1ccc(O)cc1)c1ccccn1")
17.1
>>> numeric_readout("O=C(N/N=C\\c1c(O)cc(O)cc1/C=C/c1ccc(O)cc1)c1ccccc1")
13.4
>>> numeric_readout("Nc1ccccc1C(=O)N/N=C\\c1c(O)cc(O)cc1/C=C/c1ccc(O)cc1")
8.5
>>> numeric_readout("O=C(N/N=C\\c1c(O)cc(O)cc1/C=C/c1ccc(O)cc1)c1ccccc1O")
12.8
>>> numeric_readout("O=C(N/N=C\\c1c(O)cc(O)cc1/C=C/c1ccc(O)cc1)c1ccc(Cl)cc1")
17.9
>>> numeric_readout("O=C(N/N=C\\c1c(O)cc(O)cc1/C=C/c1ccc(O)cc1)c1cccc([N+](=O)[O-])c1")
11.6
>>> numeric_readout("O=C(N/N=C\\c1c(O)cc(O)cc1/C=C/c1ccc(O)cc1)c1ccc(Br)cc1")
13
